# Test system: MOLM14
# method.description: cell viability relative to vehicle control; higher = less cytotoxic;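 note: after 48 h exposure read by CellTiter-Glo luminescence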
# measurement.parameters: 10 µM; SRSF2 genotype: SRSF2 wt/wt
molecules and their reported cell viability

molecule | cell viability
CCc1ccc(CCOc2ccc(CC3SC(=O)NC3=O)cc2)nc1 (centres undefined) [Pioglitazone (Actos)] | 108%

Next molecule, please.
What measured cell viability goes with C[C@H](Cn1cnc2c(N)ncnc21)OCP(=O)(O)O ?
98.3%

====

# Tested on: OCI-AML2
# method.description: cell viability relative to vehicle control; higher = less cytotoxic
# measurement.parameters: 10 µM; SRSF2 genotype: wt/wt
metric.name: cell viability
Give the value; after it, write the unit.

compound | experimental.system | result
CN(C)c1cc(NC(=O)CNC(C)(C)C)c(O)c2c1CC1CC3C(N(C)C)C(=O)C(C(N)=O)=C(O)C3(O)C(=O)C1=C2O (stereo not given) [Tigecycline] | OCI-AML2 | 95.7%

What does the record list as cell viability for Cn1nnc(-c2ccc(-c3ccc(N4C[C@H](COP(=O)(O)O)OC4=O)cc3F)cn2)n1 [Tedizolid Phosphate] ?
87.8%

Would you kindly share the measured cell viability for COC(=O)C1=C(C)NC(C)=C(C(=O)OCCN2CCN(C(c3ccccc3)c3ccccc3)CC2)C1c1cccc([N+](=O)[O-])c1 (stereo not given) [Manidipine (Manyper)] ?
41%

Name the reported cell viability value associated with the compound C[C@@H]1O[C@@H](OC[C@H]2O[C@@H](Oc3cc(O)c4c(c3)O[C@H](c3ccc(O)c(O)c3)CC4=O)[C@H](O)[C@@H](O)[C@@H]2O)[C@H](O)[C@H](O)[C@H]1O [Eriocitrin]
94.6%

Any idea what its cell viability is? The compound is Nc1cc(N)c(N)cc1N
103%

Looking for the measured cell viability of Cc1ccc2oc(=O)ccc2c1 [6-Methylcoumarin] , can you help?
107%

// query cell viability value for entry C=CS(=O)(=O)NC1CCN(C(=O)CNc2cc(I)c(Cl)cc2OC)CC1 [K-Ras(G12C) inhibitor 9]
30%
